- Test system: human SIRPβ1v1 (huSIRPβ1v1) (human) (UniProt O00241)
- Sequence (O00241 30-371): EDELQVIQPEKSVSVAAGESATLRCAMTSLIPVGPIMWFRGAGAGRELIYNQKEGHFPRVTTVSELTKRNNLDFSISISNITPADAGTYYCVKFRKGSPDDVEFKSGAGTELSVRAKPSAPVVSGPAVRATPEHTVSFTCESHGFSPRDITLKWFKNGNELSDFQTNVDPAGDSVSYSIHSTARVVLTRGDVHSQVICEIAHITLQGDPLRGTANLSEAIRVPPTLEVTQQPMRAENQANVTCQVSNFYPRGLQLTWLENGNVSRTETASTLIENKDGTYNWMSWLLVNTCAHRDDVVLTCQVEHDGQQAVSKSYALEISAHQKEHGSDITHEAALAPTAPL
- Experiment description: ELISA, antigen coated
Test readout: EC50 (µg/mL)
Your answer should be a plain number; it is taken to be in µg/mL.

Some solved cases for reference:
anti-SIRPα antibody 5 (antibody, human IgG1, kappa, L234A L235A, V domains shown, Rabbit variable regions on human IgG1 LALA / kappa) VH: QSVEESGGRLVTPGTPLTLTCTVSGFSLSSYVMGWFRQAAGKGLEYIGYINADGSPYYATWVNGRFTISKTPTTMDLKINSPTTEDTATYFCARVGPLGVDYFNIWGPGTLVTVSL VL: DIVMTQTPASVEAAVGGTVTIKCQASQSINRYLTWYQQKPGQRPKLLIYYASTLESGVPSRFEGSGSGTDYTLTISDLESADAATYYCQSYYYISRTYAFGGGTEVVVKR : 3.52
anti-SIRPα antibody 7 (antibody, human IgG1, kappa, L234A L235A, V domains shown, Chimeric: rabbit variable regions on human IgG1 LALA / kappa; also called chimeric antibody 7) VH: RSVEESGGRLVTPGTPLTLTCTVSGFSLSSHGISWVRQAPGKGLEYIGTIGTGVITYFASWAKGRFTGSKTSTTVDLKITSPTTEDTATYFCARGSAWNDPFDPWGPGTLVTVSS VL: ALVMTQTPASVSAAVGGTVTTKCQASQSVYGNNDLAWYQHKPGQPPKLLIYLASTLATGVPSRFSGSGSGTQFTLTITGVQSDDAATYYCLGGGDDEADNVFGGGTEVVVKR : 0.014

Could you now look at the following binder, please?
-- ask Fill in EC50 for record 29AM4-5huIgG1LALA (antibody, V domains shown, HAVT20 leader left out) VH: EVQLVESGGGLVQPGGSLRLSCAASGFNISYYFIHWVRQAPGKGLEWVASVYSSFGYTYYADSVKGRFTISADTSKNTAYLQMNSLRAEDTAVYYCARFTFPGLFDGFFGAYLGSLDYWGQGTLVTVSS VL: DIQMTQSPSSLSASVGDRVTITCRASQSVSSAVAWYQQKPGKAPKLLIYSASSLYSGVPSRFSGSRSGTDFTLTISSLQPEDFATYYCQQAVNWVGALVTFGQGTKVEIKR
-- reply 0.013
